# ASSAYED_TARGET: phospholipase A2
# Construct: gene PLA2G1B; not described in the main text; reagent of the PubChem AID 588400 phospholipase counterscreen (possibly the PLA2 reporter enzyme of an ATG4B assay)
# MEASUREMENT_NOTES: phospholipase inhibition assay (as PubChem AID […])
# Type: biochemical, Homo sapiens
# EXPERIMENTAL_CONTEXT: read-out: IC50

SMILES_TEXT: Cc1c(Cl)cccc1Nc1ccccc1C(=O)O
IC50 / µM: 20
